ASSAY_METHOD_TEXT: AUC (0 to 7 hrs) in rat at 10 mg/kg, po
Type: ADME, organism-based
Set-up: dose 10 mg/kg, time < 7 hr, route oral
CONDITIONS_USED: in vivo
PROPERTY: AUC(0-t) at 7 h (ng·h/mL)
Your answer is read as ng·h/mL, so omit the unit and give the number.

Query: Please look up its AUC(0-t) at 7 h: `CCCCn1cc(NC(=O)CCc2nc(-c3ccc(O)cn3)no2)c(C(=O)O)c1`
Response: 630
